boiling point: recorded values
Respond with the figure and its unit, in that order.

>>> endpoint_value("C=C(C)C(CC)CC")
"110 °C"
>>> endpoint_value("C=CCc1cc2c(c(OC)c1OC)OCO2")
"285 °C"
>>> endpoint_value("CC=CC(=O)OC(=O)C=CC")
"247 °C"
>>> endpoint_value("CO[Si](C)(C)OC")
"82 °C"
>>> endpoint_value("OCCN1CC1")
"168 °C"
>>> endpoint_value("CCCCCC#N")
"164 °C"
>>> endpoint_value("CC=CC=C(C)C")
"112 °C"
>>> endpoint_value("OCC1CCCC1")
"163 °C"

Record request: boiling point value, item CCc1ccc[nH]1
164 °C

If you can, please state the reported boiling point value of CCCCCCCCCCCS .
257 °C

Looking for the measured boiling point of CCCCOCCO , can you help?
168 °C

// boiling point lookup, key: Cc1ccc(-c2ccccc2)cc1C
282 °C

# input compound: Cc1cc(=O)cc(C)o1 ; wanted: its boiling point
251 °C

Which measured boiling point value corresponds to FC(F)(F)C(F)(F)C(F)(F)C(F)(F)C(F)(F)C(F)(F)C(F)(F)C(F)(F)C(F)(F)I ?
181 °C

Any idea what its boiling point is? The compound is O=C(Cl)c1ccc(C(=O)Cl)cc1
258 °C

What does the data say about its boiling point? Entry: Cc1cccc(C)c1Cl
186 °C

Look at this compound and give its reported boiling point. C=C(C)C1CC=C(C)C(=O)C1 (configuration not stated)
230 °C
